Some molecules, each annotated with its measured GI50.
Test system: SK-MEL-2
Assay Comment: NCI tumour cell line growth inhibition, 48 h
Active and inactive are the calls of the source. Rule as the data show it: active = GI50 up to about 1.1 µM and inactive = higher.

{"columns": ["Smiles Entry", "Measure Name", "Meas Value"],
 "data": [
  ["COc1c(Cl)ccc(Cl)c1C(=O)NNC(=O)c1c(Cl)c(Cl)c(Cl)c(Cl)c1-c1nc2cc(C(=O)c3ccccc3)ccc2[nH]1", "GI50", "31.9 µM (inactive)"]
]}

### Prompt Report measured GI50 on SK-MEL-2; entry: O=c1[nH]c2ccccc2cc1C(Cl)=C(Cl)Cl
### Response > 100 µM (inactive)

###

Test system: MDA-MB-231
Assay Comment: NCI tumour cell line growth inhibition, 48 h
Calls of active or inactive are those of the source. No stated cut-off is given here; in the data, active = GI50 up to about 1.1 µM and inactive = higher.
Measure Name: GI50

Worked examples follow.
{"columns": ["Smiles Entry", "GI50"],
 "data": [
  ["CCc1n[nH]c(=O)n1/N=C(\\C)c1ccccc1", "> 100 µM (inactive)"],
  ["S=c1nc(Nc2ccc(Br)cc2)c2c3c(sc2[nH]1)CN(N1CCc2c(sc4[nH]c(=S)nc(Nc5ccc(Br)cc5)c24)C1)CC3", "17.9 µM (inactive)"],
  ["O=C(O)c1ccc(/N=C(\\C(=N\\c2ccc(C(=O)O)cc2)c2ccccc2)c2ccccc2)cc1", "> 100 µM (inactive)"],
  ["C(=C\\c1cc[n+](CCc2ccccc2)cc1)/c1ccccc1", "12.6 µM (inactive)"],
  ["CC(C)OC(=O)NNc1cccc(Cl)c1", "> 100 µM (inactive)"]
]}

### Prompt Report measured GI50 on MDA-MB-231; entry: COc1ccc(/C=C/c2cc(=O)cc(/C=C/c3ccc(OC)c(O)c3)o2)cc1O
### Response 2.05 µM (inactive)

### Prompt Report measured GI50 on MDA-MB-231; entry: N#CCCN(CCN(C(=O)Nc1ccccc1)c1ccccc1)C(=O)Nc1ccccc1
### Response > 100 µM (inactive)

### Prompt Report measured GI50 on MDA-MB-231; entry: Cc1ccc(-n2cc(-c3ccc(Cl)cc3)c3c(NN)ncnc32)cc1
### Response 6.89 µM (inactive)

### Prompt Report measured GI50 on MDA-MB-231; entry: Nc1nc(N)c(CCCCc2ccccc2)c(N)n1
### Response > 100 µM (inactive)

### Prompt Report measured GI50 on MDA-MB-231; entry: Nc1c(S(=O)(=O)O)cc(Nc2cccc(S(=O)(=O)/C=C/S(=O)(=O)O)c2)c2c1C(=O)c1ccccc1C2=O
### Response > 100 µM (inactive)

###

Test system: CCRF-CEM
Assay Comment: NCI tumour cell line growth inhibition, 48 h
Active and inactive are the calls of the source. Rule as the data show it: active = GI50 up to about 1.1 µM and inactive = higher.
Lab note: assign the record to one of 1.0 (active), 0.0 (inactive)

Reference set (8 entries):
{"columns": ["Compound", "Cat"],
 "data": [
  ["OC1(C(Sc2ccccc2)Sc2ccccc2)CCCCCC1", 0.0],
  ["Nc1c(Cl)ncnc1NCC1(CO)CCC1", 0.0],
  ["CC(C)C(OC(=O)c1ccc(NCc2cc(O)ccc2O)cc1)C(C)C", 1.0],
  ["COC(=O)C1(C(=O)OC)Cc2ccc(OC)cc2C2=C1C(=O)c1ccccc1C2=O", 0.0],
  ["CN(C)CC1CCCc2ccccc2C1=O (configuration not stated)", 1.0],
  ["CC1=CCC[C@@](C)(O)[C@@H]2C[C@H]3C(CSc4ccccc4)C(=O)O[C@H]3[C@@H](O2)[C@H](C)CCC1 (some centres not stated)", 0.0],
  ["O=C(O)C/C(=C\\c1ccccc1)C(=O)O", 0.0],
  ["CCN(CCCl)CCCNc1c2ccccc2nc2ccc(OC)cc12", 1.0]
]}

### Prompt Fill in: this test's call for Nc1nc(N)c(CCCCc2ccccc2)c(N)n1 is ___
### Response 0.0

### Prompt Fill in: this test's call for CN(/N=C\c1ccc2ccccc2c1)C1=NCCN1 is ___
### Response 0.0

### Prompt Fill in: this test's call for CNC(=O)N(CCC#N)CCCN(C(=O)N(C)C)c1ccccc1 is ___
### Response 0.0

### Prompt Fill in: this test's call for N#CCCC1C(C#N)C2CC1C1C3C=CC(C3)C21 (configuration not stated) is ___
### Response 0.0

### Prompt Fill in: this test's call for NC(Cn1ccc(=O)c(O)c1)C(=O)O (configuration not stated) [MIMOSINE] is ___
### Response 0.0

### Prompt Fill in: this test's call for COc1ccc(Nc2nc(N)c(C(=O)c3ccc(Cl)cc3)s2)cc1 is ___
### Response 1.0

### Prompt Fill in: this test's call for CS(=O)(=O)OC1CCN(C2(c3cccc(O)c3)CCCCC2)CC1 is ___
### Response 0.0

###

Test system: ACHN
Assay Comment: NCI tumour cell line growth inhibition, 48 h
Calls of active or inactive are those of the source. Rule as the data show it: active = GI50 up to about 1.1 µM and inactive = higher.
Measure Name: GI50

Worked examples follow.
{"columns": ["Compound", "GI50"],
 "data": [
  ["CC(CCC[C@H](C)CO)[C@H]1[C@@H](O)C(O)C2[C@@H]3C[C@@H](O)C4(O)C[C@@H](O)CC[C@]4(C)C3CC[C@@]21C (some centres undefined)", "> 100 µM (inactive)"],
  ["O=C1C2Cc3c(n(C(=O)c4ccccc4)c4ccccc34)CC2C(=O)N1c1ccc(Nc2ccc(N3C(=O)C4Cc5c(n(C(=O)c6ccccc6)c6ccccc56)CC4C3=O)cc2)cc1 (centres undefined)", "> 100 µM (inactive)"],
  ["Cc1c(C2=C(Br)C(=O)N(C)C2=O)c(=O)n(C)c(=O)n1C", "26.7 µM (inactive)"]
]}

### Prompt Annotate the compound Nc1nc(F)nc2c1ncn2C1OC(CO)C(O)C1O (centres undefined) with its measured GI50.
### Response 34 µM (inactive)

### Prompt Annotate the compound Cc1ccc([S+]([O-])/C=C(\NC(=O)OCc2ccccc2)C(F)(F)F)cc1 (centres undefined) with its measured GI50.
### Response 17.8 µM (inactive)

### Prompt Annotate the compound CC(CO)CCC(O)C(C)(O)C1CCC2(O)C3=CC(=O)C4CC(O)C(O)CC4(C)C3CCC12C (centres undefined) with its measured GI50.
### Response > 100 µM (inactive)

### Prompt Annotate the compound CC(NC(=O)/C(C#N)=C/c1ccc2[nH]ccc2c1)c1ccccc1 (centres undefined) with its measured GI50.
### Response 21.6 µM (inactive)

### Prompt Annotate the compound CS(=O)(=O)OC1CCN(C2(c3cccc(O)c3)CCCCC2)CC1 with its measured GI50.
### Response > 100 µM (inactive)

### Prompt Annotate the compound Clc1cccc(/N=C/C=C/Nc2cccc(Cl)c2)c1 with its measured GI50.
### Response > 10 µM (inactive)

### Prompt Annotate the compound C/C(=N/N(C=O)C[n+]1ccccc1)C(CN(CC(C)C)CC(C)C)C(=O)Nc1ccc(C)cc1C (centres undefined) with its measured GI50.
### Response 94.2 µM (inactive)

### Prompt Annotate the compound CCOC(=O)CCC(NC(=O)Cc1ccc(Oc2nc3ccccc3nc2-c2cccs2)cc1)C(=O)OCC (centres undefined) with its measured GI50.
### Response 2.44 µM (inactive)

### Prompt Annotate the compound O/N=N/c1ccc(Sc2ccc(/N=N/O)cn2)nc1 with its measured GI50.
### Response > 100 µM (inactive)

### Prompt Annotate the compound CCOC(=O)CCC(NC(=O)c1ccc(OCc2ccc3nc(-c4ccccc4)c(Cl)nc3c2)cc1)C(=O)OCC (centres undefined) with its measured GI50.
### Response 26.9 µM (inactive)

### Prompt Annotate the compound CCOC(=O)NC/C=C/CO with its measured GI50.
### Response > 100 µM (inactive)

###

System: COLO 205
Assay Comment: NCI tumour cell line growth inhibition, 48 h
The source made the active and inactive calls. No stated cut-off is given here; in the data, active = GI50 up to about 1.1 µM and inactive = higher.
Lab note: assign the record to one of active, inactive

Reference set (5 entries):
{"columns": ["Compound", "Cat"],
 "data": [
  ["CCCCI(O)OS(=O)(=O)c1ccc(C)cc1", "inactive"],
  ["CC1(C)CC2=NOS3=C2C(=NO3)C1c1ccccn1 (stereo not given)", "inactive"],
  ["O=C(O)c1ccc(/N=C(\\C(=N\\c2ccc(C(=O)O)cc2)c2ccccc2)c2ccccc2)cc1", "inactive"],
  ["CC1=NN(c2nc(N)nc(/C(C#N)=C\\c3ccc(-c4ccc([N+](=O)[O-])cc4)o3)n2)C(C)(C)C1", "inactive"],
  ["Cc1c(C2=C(Br)C(=O)N(C)C2=O)c(=O)n(C)c(=O)n1C", "inactive"]
]}

### Prompt Fill in: this test's call for CCCO[C@@H]1[C@@H](OC(C)=O)[C@@H](OC(C)=O)C(C)(C)/C=C/[C@H](C)C(=O)[C@@]2(OC(C)=O)C[C@@](C)(OC(C)=O)[C@H](OC(C)=O)[C@@H]2[C@H]2OC(=O)CC[C@@]12OC(=O)c1ccccc1 is ___
### Response inactive

### Prompt Fill in: this test's call for Oc1cc2c(cc1O)-c1[nH]ncc1CC2 is ___
### Response inactive

### Prompt Fill in: this test's call for COc1cc(-c2cc(=O)c3c(OC)c(OC)c(OC)cc3o2)c(OC)c(OC)c1OC is ___
### Response inactive

### Prompt Fill in: this test's call for Cc1ccc(N2C(=O)C3c4[nH]c5ccc(C)cc5c4C4CCC(C(C)(C)C)CC4C3C2=O)cc1 (stereo not given) is ___
### Response inactive

### Prompt Fill in: this test's call for CC(=O)OCC1OC(n2cc(F)c(=O)[nH]c2=O)C(N)C(OC(C)=O)C1OC(C)=O (stereo not given) is ___
### Response inactive

### Prompt Fill in: this test's call for COc1ccc2c(c1)C1c3ccccc3CCN1CCC2 (stereo not given) is ___
### Response inactive

### Prompt Fill in: this test's call for COc1ccccc1/C=C(\NC(=O)c1ccccc1)c1nc2ccccc2[nH]1 is ___
### Response inactive

### Prompt Fill in: this test's call for C/N=N/N(C)C(=O)NC is ___
### Response inactive

### Prompt Fill in: this test's call for CC(=O)OCSc1ncnc2c1ncn2CN1CCOCC1 is ___
### Response inactive

### Prompt Fill in: this test's call for COC(=O)C1(C(=O)OC)Cc2ccc(OC)cc2C2=C1C(=O)c1ccccc1C2=O is ___
### Response inactive

### Prompt Fill in: this test's call for S=c1sc2cscc2s1 is ___
### Response inactive

### Prompt Fill in: this test's call for COc1cc2c(c(O)c1C)C(=O)C(Cl)=CC2=O is ___
### Response inactive

### Prompt Fill in: this test's call for Clc1ccc2c(Cl)ncnc2c1I is ___
### Response inactive

### Prompt Fill in: this test's call for [O-][n+]1onc2c1CCC(=N\O)/C2=N/Nc1ccccc1 is ___
### Response inactive

### Prompt Fill in: this test's call for O=c1c(C(c2ccc3c(c2)Cc2ccccc2-3)c2c(O)oc3ccccc3c2=O)c(O)oc2ccccc12 is ___
### Response inactive

### Prompt Fill in: this test's call for CNc1nnc(CNc2ccc(-c3nnc(NC)n3N)cc2)n1N is ___
### Response inactive

### Prompt Fill in: this test's call for Oc1c(NCn2nc(CCCCCCCCc3nn(CNc4ccc5ccccc5c4O)c(=S)o3)oc2=S)ccc2ccccc12 is ___
### Response inactive
